The reader will find reported Chlamydomonas. HST % I at 25 ppm values listed item by item below.
Molecular target: Chlamydomonas HST (Chlamydomonas reinhardtii)
Construct: GST (N); made in house; host or cells: E. coli (BL21A1 / BL21DE3), membrane fraction
Sequence (A1JHN0 51-370): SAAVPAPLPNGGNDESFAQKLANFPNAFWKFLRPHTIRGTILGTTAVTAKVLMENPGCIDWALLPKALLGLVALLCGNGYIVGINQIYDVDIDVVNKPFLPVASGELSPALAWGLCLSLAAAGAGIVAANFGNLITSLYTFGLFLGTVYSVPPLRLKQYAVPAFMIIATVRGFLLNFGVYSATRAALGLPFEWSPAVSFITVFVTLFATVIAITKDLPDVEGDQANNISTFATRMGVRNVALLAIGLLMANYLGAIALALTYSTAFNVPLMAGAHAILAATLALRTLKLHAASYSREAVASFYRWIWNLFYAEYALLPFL
Test: HST assay (TLC, MFBQ formed), recombinant Chlamydomonas HST in E. coli membranes
Type: biochemical
Details: 25 ppm; TLC, estimated amount of MFBQ formed, relative to controls

Use the examples below as a reference point.
[[record]]
mol = "O=S1(=O)C(c2c(Cl)cccc2C(F)(F)F)=C(O)c2nccnc2N1CC(F)F"
measured_endpoint = "Chlamydomonas. HST % I at 25 ppm"
observed_result = "20%"

[[record]]
mol = "O=c1c(-c2c(Cl)cncc2Cl)c(O)c2nccnc2n1CC(F)F"
measured_endpoint = "Chlamydomonas. HST % I at 25 ppm"
observed_result = "20%"

[[record]]
mol = "CCc1cc(CC)c(-c2c(O)c3nccnc3[nH]c2=O)c(CC)c1"
measured_endpoint = "Chlamydomonas. HST % I at 25 ppm"
observed_result = "50%"

[[record]]
mol = "O=c1c(-c2c(F)ccc(F)c2Cl)c(O)c2cccnc2n1CC(F)F"
measured_endpoint = "Chlamydomonas. HST % I at 25 ppm"
observed_result = "60%"

[[record]]
mol = "O=c1[nH]c2nccnc2c(O)c1-c1ccccc1OC(F)(F)F"
measured_endpoint = "Chlamydomonas. HST % I at 25 ppm"
observed_result = "0%"


The compound O=S1(=O)C(c2c(Cl)ccc(Cl)c2Cl)=C(O)c2nccnc2N1CC(F)F , tested on Chlamydomonas HST (Chlamydomonas reinhardtii), showed Chlamydomonas. HST % I at 25 ppm of 50%

GET /values?item= CCN1c2nccnc2C(O)=C(c2c(Cl)cccc2C(F)(F)F)S1(=O)=O &system= Chlamydomonas HST (Chlamydomonas reinhardtii) returns Chlamydomonas. HST % I at 25 ppm: 20%

Lab note: compound CN1c2nccnc2C(O)=C(c2ccc(Cl)cc2Cl)S1(=O)=O tested on Chlamydomonas HST (Chlamydomonas reinhardtii); recorded Chlamydomonas. HST % I at 25 ppm was 0%

----------
tested on: HST in spinach chloroplast extract; experiment: HST assay (TLC, MFBQ formed), spinach chloroplast extract; format: biochemical; settings: 25 ppm; TLC, estimated amount of MFBQ formed, relative to controls
Spinach chloroplast extract % I at 25 ppm values, listed per item
Answer format: numeric, % implied, no suffix.

[[record]]
compound = "CCN1c2nccnc2C(O)=C(c2c(Cl)cccc2C(F)(F)F)S1(=O)=O [Compound 3.1]"
observed_result = 20

[[record]]
compound = "CCc1cc(CC)c(-c2c(O)c3nccnc3[nH]c2=O)c(CC)c1 [Compound 2.10]"
observed_result = 0

[[record]]
compound = "O=c1c(-c2c(Cl)ccc(Cl)c2Cl)c(O)c2nccnc2n1CC(F)F [Compound 2.14]"
observed_result = 80

[[record]]
compound = "CN1c2nccnc2C(O)=C(c2ccc(Cl)cc2Cl)S1(=O)=O [Compound 3.2]"
observed_result = 15


The reported Spinach chloroplast extract % I at 25 ppm of the compound O=c1c(-c2cc(C(F)(F)F)ccc2Cl)c(O)c2nccnc2n1CC(F)F [Compound 2.9] was 90

Entry under test: Cc1cc(C)c(-c2c(O)c3nccnc3n(CC(F)F)c2=O)c(C)c1 [Compound 2.11] . Its Spinach chloroplast extract % I at 25 ppm was 30

The recorded Spinach chloroplast extract % I at 25 ppm for Oc1c(Br)c(F)nc(F)c1Br [Compound 1.4] is 75

Measured Spinach chloroplast extract % I at 25 ppm of O=c1c(-c2c(F)ccc(Br)c2Cl)c(O)c2nccnc2n1CC(F)F [Compound 2.8] : 70

Sample O=S1(=O)C(c2c(Cl)cccc2C(F)(F)F)=C(O)c2nccnc2N1CC(F)F [Compound 3.3] ; Spinach chloroplast extract % I at 25 ppm observed: 35

----------
Each item that follows carries a reported pest or weed control at 62.5 g/ha.
tested on: weeds; assay: Glasshouse weed control, HST inhibitors alone and with A22, post-emergence; type: in vivo; settings: 336 h, SIDSP, 14 DAT, 62.5 g/ha alone, single replicate, read-out: % control score, Obs
I only need the number, in %, no unit after it.

[[record]]
molecule = "O=c1c(-c2cc(C(F)(F)F)ccc2Cl)c(O)c2nccnc2n1CC(F)F [Compound 2.9]"
observed_result = 20


Sample O=c1c(-c2c(F)ccc(Br)c2Cl)c(O)c2nccnc2n1CC(F)F [Compound 2.8] , system: weeds. Its pest or weed control at 62.5 g/ha is 45

The reported pest or weed control at 62.5 g/ha value, weeds, for O=c1c(-c2cc(Cl)ccc2C(F)(F)F)c(O)c2nccnc2n1CC(F)F [Compound 2.19] reads 30

Item O=S1(=O)C(c2ccc(Br)cc2C(F)(F)F)=C(O)c2nccnc2N1CC(F)F [Compound 3.5] was tested on weeds; the reported pest or weed control at 62.5 g/ha is 10

Entry O=c1c(-c2c(F)ccc(Br)c2Cl)c(O)c2cccnc2n1CC(F)F [Compound 2.15] : pest or weed control at 62.5 g/ha on weeds = 10

Noted pest or weed control at 62.5 g/ha for Cn1c(=O)c(-c2c(Cl)cccc2C(F)(F)F)c(O)c2nccnc21 [Compound 2.16] , tested on weeds: 40

Test item O=c1c(-c2c(F)ccc(F)c2Cl)c(O)c2nccnc2n1CC(F)(F)F [Compound 2.17] ; weeds; reported pest or weed control at 62.5 g/ha was 15

Case O=c1c(-c2c(F)ccc(Cl)c2Cl)c(O)c2nccnc2n1CC(F)F [Compound 2.21] , weeds, pest or weed control at 62.5 g/ha recorded as 20

Lab entry: weeds assay, molecule O=c1c(-c2c(Cl)ccc(Cl)c2Cl)c(O)c2nccnc2n1CC(F)F [Compound 2.14] , pest or weed control at 62.5 g/ha = 30

The reported pest or weed control at 62.5 g/ha value, weeds, for CC1=NN(C)C(=O)C(c2c(C)cc(C)cc2C)C1=O (centres unmarked) [Compound 6.1] reads 15

Summary line: O=c1c(-c2c(Cl)cccc2C(F)(F)F)c(O)c2nccnc2n1CC(F)F [Compound 2.20] , weeds, reported pest or weed control at 62.5 g/ha = 50

----------
tested on: weeds; assay: Glasshouse weed control, HST inhibitors alone and with A22, post-emergence; assay type: in vivo; conditions: PANMI, 14 DAT, 15.625 g/ha alone, single replicate
Measured endpoint: % control score, Obs (%)
State just the number; it will be interpreted in %.

Would you please look over these solved cases?
[[record]]
mol = "CC(C)C(=O)Oc1c(-c2c(Cl)cccc2C(F)(F)F)c(=O)n(CC(F)F)c2nccnc12"
measured_endpoint = "% control score, Obs"
observed_result = 1

[[record]]
mol = "C#Cn1c(=O)c(-c2c(F)ccc(F)c2Cl)c(O)c2nccnc21"
measured_endpoint = "% control score, Obs"
observed_result = 10

[[record]]
mol = "CC(C)(C)C(=O)Oc1c(-c2c(F)ccc(Cl)c2Cl)c(=O)n(CC(F)F)c2nccnc12"
measured_endpoint = "% control score, Obs"
observed_result = 2


Noted % control score, Obs for O=c1c(-c2c(F)ccc(F)c2Cl)c(O)c2nccnc2n1CC(F)F , tested on weeds: 2

----------
system: weeds; test: Glasshouse weed control, HST inhibitors alone and with A22, post-emergence; format: in vivo; details: PANMI, 14 DAT, 62.5 g/ha alone, single replicate
Measured endpoint: % control score, Obs

[[record]]
mol = "CC(C)C(=O)Oc1c(-c2c(Cl)cccc2C(F)(F)F)c(=O)n(CC(F)F)c2nccnc12"
observed_result = "35%"

[[record]]
mol = "C#Cn1c(=O)c(-c2c(F)ccc(F)c2Cl)c(O)c2nccnc21"
observed_result = "65%"

[[record]]
mol = "CC(C)(C)C(=O)Oc1c(-c2c(F)ccc(Cl)c2Cl)c(=O)n(CC(F)F)c2nccnc12"
observed_result = "10%"


Please look at the following compound next.
So for O=c1c(-c2c(F)ccc(F)c2Cl)c(O)c2nccnc2n1CC(F)F , the logged % control score, Obs turned out to be 55%

----------
Tested on: weeds
Assay: Glasshouse weed control, HST inhibitors alone and with A22, post-emergence
Assay type: in vivo
Conditions: ECHCG, 14 DAT, 250 g/ha alone, single replicate
Method: In a further test, the results of which are depicted in tables 18 and 19, weed seeds are planted out in trays containing 50% peat/50% John Innes no. 3 soil and grown in the glass house at 24-27 C day; 18-21 C night and approximately a 15 h photoperiod. Humidity is ˜65% and light levels at bench level are up to 2 mmol/m^2. […] Plants are assessed at 14 DAT with herbicidal damage scored on a scale from 0 to 100%. […]
Measured % control score, Obs of individual entries
Give your result as the value with the unit written after it.

Example cases with answers are listed next.
[[record]]
compound = "C#Cn1c(=O)c(-c2c(F)ccc(F)c2Cl)c(O)c2nccnc21 [Compound 2.18]"
observed_result = "70%"

[[record]]
compound = "CC(C)C(=O)Oc1c(-c2c(Cl)cccc2C(F)(F)F)c(=O)n(CC(F)F)c2nccnc12 [Compound 2.28]"
observed_result = "70%"

[[record]]
compound = "O=c1c(-c2c(F)ccc(F)c2Cl)c(O)c2nccnc2n1CC(F)F [Compound 2.3]"
observed_result = "40%"


Consider the record given below.
Note to self: % control score, Obs recorded for CC(C)(C)C(=O)Oc1c(-c2c(F)ccc(Cl)c2Cl)c(=O)n(CC(F)F)c2nccnc12 [Compound 2.25] was 30%

// data source = patent US20110173718A1
